Entry source: patent US10111854B2

- Tested on: L. amazonensis LV78 amastigotes
- assayInfo: Anti-amastigote activity in infected PEM, L. amazonensis LV78
- Assay type: cell-based
- testParameters: Leishmania amazonensis, 72 h; infected PEM, 3 days, Giemsa
pIC50: −log10 of the molar value.
quantity: pIC50

Read off the recorded pIC50 for O=c1cc(-c2ccc(OCCOCCN(Cc3ncccc3Cl)Cc3ncccc3Cl)cc2)oc2ccccc12 [FM09g] < 5.00

Provide pIC50 for all items below, preserving their order.
1. O=C(COc1ccc(-c2cc(=O)c3ccccc3o2)cc1)N1CCN(C(=O)c2ccncc2)CC1 [FM16]
2. O=C(NCCOCCOc1ccc(-c2cc(=O)c3ccccc3o2)cc1)c1ccncc1 [FM03]

1. < 5.00
2. < 5.00
